Experiment: chemical genetic growth profiling, strain panel (AID 1159580);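 note: tested at 20 µM; growth read once vehicle control cultures reached saturation at 30 °C; 1 = growth at the plate median or of vehicle wells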
Details: S. cerevisiae deletion strains, growth OD, locus YGR135W, strain pre9, stronger effect = lower value
Screen size: about 5,500 compounds; about 2,000 (36%) were called active. Not shown: some 18% with an inconclusive outcome. The list shows a part of the results.
// normalized growth lookup, one value per entry
I only need the number, thanks.

Prompt: Look up normalized growth for this molecule: `O=c1c(-c2ccc3c(c2)OCO3)coc2cc(O)ccc12`
Completion: 0.987

###

Experiment: chemical genetic growth profiling, strain panel (AID 1159580);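 note: tested at 20 µM; growth read once vehicle control cultures reached saturation at 30 °C; 1 = growth at the plate median or of vehicle wells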
Details: S. cerevisiae deletion strains, growth OD, locus YPR141C, strain kar3
In all, about 5,500 compounds went through this assay and about 2,000 (36%) were called active. Not shown: some 18% with an inconclusive outcome. No stated cut-off is given here; in the data, active means normalized growth mostly below about 0.91 (no sharp cut-off); inconclusive means no clear call, values can overlap the other calls; inactive means mostly above about 0.92. Some of the results follow.
Choose one outcome from this list and give only that: 1 (active), 0 (inactive)

These recorded examples may help you get a feel for the data.
MOLECULE	ASSIGNED_LABEL
C=C(C)c1cc2cc(C(C)=O)c(O)cc2o1	1
C/C=C(\C)C(=O)OC1[C@@H]2C=C3C4CC(=O)O[C@@H](c5ccoc5)[C@]4(C)CCC3[C@@](C)(C2=O)[C@@H](C(O)C(=O)OC)C1(C)C (stereo not given in full)	0
Cn1nnnc1SCC1=C(C(=O)O)N2C(=O)C(NC(=O)C(OC=O)c3ccccc3)C2SC1 (stereo not given)	0
COc1ccc2c(=O)c(CC(=O)O)coc2c1	0
Cc1c(N(C)CS(=O)(=O)O)c(=O)n(-c2ccccc2)n1C	0

Prompt: Hey, what did the test say about `CN1CCN(CCCN2c3ccccc3Sc3ccc(Cl)cc32)CC1` ?
Completion: 0

Prompt: Hey, what did the test say about `C[C@H]1C(=O)O[C@@H]2CCN3CC=C(COC(=O)[C@](C)(O)[C@]1(C)O)[C@H]23` ?
Completion: 0

Prompt: Hey, what did the test say about `N#Cc1ccc2c(c1)N(CCCN1CCC(O)CC1)c1ccccc1S2` ?
Completion: 0

Prompt: Hey, what did the test say about `OCCN1CCN(CCCN2c3ccccc3Sc3ccc(Cl)cc32)CC1` ?
Completion: 0

Prompt: Hey, what did the test say about `O=c1n(CCCN2CCN(c3cccc(Cl)c3)CC2)nc2ccccn12` ?
Completion: 0
